- assayTarget: Mitogen-activated protein kinase 8 (Homo sapiens, UniProt P45983)
- Sequence (P45983 whole entry): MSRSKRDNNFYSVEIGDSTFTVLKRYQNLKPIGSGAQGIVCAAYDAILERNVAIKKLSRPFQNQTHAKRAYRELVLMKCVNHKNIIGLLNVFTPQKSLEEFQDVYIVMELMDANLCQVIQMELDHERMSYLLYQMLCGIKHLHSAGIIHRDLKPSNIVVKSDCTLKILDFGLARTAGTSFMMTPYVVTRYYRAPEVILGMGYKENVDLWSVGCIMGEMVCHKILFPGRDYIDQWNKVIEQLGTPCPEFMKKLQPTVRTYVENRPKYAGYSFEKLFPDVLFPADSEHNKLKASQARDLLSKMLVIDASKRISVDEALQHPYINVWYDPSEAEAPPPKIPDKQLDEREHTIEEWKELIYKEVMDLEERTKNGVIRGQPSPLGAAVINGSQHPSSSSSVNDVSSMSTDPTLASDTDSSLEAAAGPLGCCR
- assayProtocol: Inhibition of JNK1 by HRTF
Some molecules, each annotated with its measured IC50.
quantity: IC50 (nM)

* Cn1cc(-c2ccc3cnc(Nc4ccc(-n5cnc(N6CCOCC6)n5)cc4)nc3c2)cn1 | 50
* Cn1cc(-c2cccc3cnc(Nc4ccc(-n5cnc(N6CCOCC6)n5)cc4)nc23)cn1 | 10
* COc1ccc(-c2cccc3cnc(Nc4ccc(-n5cnc(N6CCOCC6)n5)cc4)nc23)cc1F | 90
* c1cc(-c2nccs2)c2nc(Nc3ccc(-n4cnc(N5CCOCC5)n4)cc3)ncc2c1 | 30
* c1cc(-n2cnc(N3CCOCC3)n2)ccc1Nc1ncc2ccc(-c3cn[nH]c3)cc2n1 | 40

----------
- assayProtocol: Volume of distribution in rat at 1 mg/kg, iv
- Type: ADME, organism-based
- Set-up: dose 1 mg/kg, route intravenous
- experimentalSetup: in vivo
Some compounds, each annotated with its measured Vd.
quantity: Vd (L/kg)

• Cn1cc(-c2ccc3cnc(Nc4ccc(-n5cnc(N6CCOCC6)n5)cc4)nc3c2Cl)cn1 = 1.4
• Cn1cc(-c2ccc3cnc(Nc4ccc(-n5cnc(N6CCOCC6)n5)cc4)nc3c2)cn1 = 0.8

----------
Some molecules, each annotated with its measured log10 concentration at 2 h.
- assayProtocol: Drug level in mouse brain at 10 mg/kg, ip after 2 hrs
- Assay type: ADME, organism-based
- Parameters: dose 10 mg/kg, route intraperitoneal
- experimentalSetup: read-out: Drug uptake
quantity: log10 concentration at 2 h (log10 of the value in µM)

* c1cncc(-c2ccc3cnc(Nc4ccc(-n5cnc(N6CCOCC6)n5)cc4)nc3c2)c1 | 0.91
* Cc1ccc(-c2cccc3cnc(Nc4ccc5c(c4)OCO5)nc23)cn1 | 0.03
* c1cc(-n2cnc(N3CCOCC3)n2)ccc1Nc1ncc2ccc(-c3cn[nH]c3)cc2n1 | 0.12
* Cn1cc(-c2ccc3cnc(Nc4ccc(-n5cnc(-c6ccccn6)n5)cc4)nc3c2)cn1 | 0.14
* COc1ccc(-c2cccc3cnc(Nc4ccc(-n5cnc(N6CCOCC6)n5)cc4)nc23)cc1F | 0.18
* Cc1ccc(-c2cccc3cnc(Nc4ccc(-n5cnc(N6CCOCC6)n5)cc4)nc23)cn1 | -0.82
* Cc1c(-c2cnn(C)c2)ccc2cnc(Nc3ccc(-n4cnc(N5CCOCC5)n4)cc3)nc12 | 0.88
* Cn1cc(-c2ccc3cnc(Nc4ccc(-n5cnc(N6CCOCC6)n5)cc4)nc3c2Cl)cn1 | 0.92
* Cn1cc(-c2cccc3cnc(Nc4ccc(-n5cnc(N6CCOCC6)n5)cc4)nc23)cn1 | -0.64
* c1ccc(-c2cccc3cnc(Nc4ccc(-n5cnc(N6CCOCC6)n5)cc4)nc23)cc1 | 1.10
* Cc1ccc(-c2cccc3cnc(Nc4ccc(-n5cnc(C)n5)cc4)nc23)cn1 | -0.64
* Cn1cc(-c2ccc3cnc(Nc4ccc(-n5cnc(N6CCOCC6)n5)cc4)nc3c2C(F)(F)F)cn1 | 0.75
* COc1c(-c2cnn(C)c2)ccc2cnc(Nc3ccc(-n4cnc(N5CCOCC5)n4)cc3)nc12 | 0.69
* Cn1cc(-c2ccc3cnc(Nc4ccc(-n5cnc(N6CCOCC6)n5)cc4)nc3c2-c2cnn(C)c2)cn1 | -0.66
* COc1ccc(-c2cccc3cnc(Nc4ccc(-n5cnc(C)n5)cc4)nc23)cc1F | 0.88
* Cn1cc(-c2ccc3cnc(Nc4ccc(-n5cnc(N6CCOCC6)n5)cc4)nc3c2)cn1 | 0.86
